Recorded pKi by entry
- target-entity: TAFIa (activated human TAFI) (Homo sapiens, UniProt Q96IY4)
- Sequence (Q96IY4 115-423): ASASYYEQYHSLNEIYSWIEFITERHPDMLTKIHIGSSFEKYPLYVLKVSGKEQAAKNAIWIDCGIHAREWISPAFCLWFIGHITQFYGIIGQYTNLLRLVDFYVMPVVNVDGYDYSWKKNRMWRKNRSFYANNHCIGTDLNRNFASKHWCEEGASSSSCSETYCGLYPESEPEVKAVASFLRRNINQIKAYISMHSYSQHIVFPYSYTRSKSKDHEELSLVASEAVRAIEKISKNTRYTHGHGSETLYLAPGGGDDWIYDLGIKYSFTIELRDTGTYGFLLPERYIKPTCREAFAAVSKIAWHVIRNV
- assay-protocol: Assay for TAFIa inhibition (Ki determination)
- Format: biochemical
- details: TAFIa; FAAL substrate; Ki calculated from IC50 using Cheng-Prusoff equation; read-out: Ki
By convention, pKi is the negative base-10 log of a molar concentration.

Worked examples follow.
NCCN[C@@H](Cc1cn(Cc2cncs2)cn1)C(=O)O    6.71
CCCn1cnc(CC(CCCCN)C(=O)O)c1 (racemic)    6.51

Consider the additional molecule presented here.
Q: Suppose we examine the molecule NCCN[C@@H](Cc1c[nH]cn1)C(=O)O ; what pKi value has been reported?
Result: 6.46

From: patent US6949577B2
